tested on: barnyardgrass (Echinochloa crus-galli); test: Test A postemergence; type: in vivo; settings: Echinochloa crus-galli, post-emergence, 240 h, Postemergence, 31 g ai/ha; visual injury after approx. 10 d; 0 to 100 scale, 0 no effect, 100 complete control; read-out: Plant response rating, Barnyardgrass
measurement label: pest or weed control at 31 g/ha (%)
# value in %; strip the unit string

Consider the following illustrative entries.
chemical smiles: CSc1ccccc1NC(=O)[C@H]1C(=O)N(C2CC2)CC[C@@H]1c1ccc(F)cc1
pest or weed control at 31 g/ha, %: 0
//
chemical smiles: Cc1cc(F)cc([C@H]2CN(C)C(=O)[C@@H]2C(=O)Nc2ccc(F)c(F)c2F)c1
pest or weed control at 31 g/ha, %: 80
//
chemical smiles: CN1CC[C@H](c2cccc(OC(F)(F)F)c2)[C@@H](C(=O)Nc2cccc(F)c2F)C1=O
pest or weed control at 31 g/ha, %: 70

Case CN1C[C@H](c2cc(C(F)F)cs2)[C@@H](C(=O)Nc2ccc(F)c(F)c2F)C1=O , barnyardgrass (Echinochloa crus-galli), pest or weed control at 31 g/ha recorded as 90

====

system: blackgrass (Alopecurus myosuroides); test: Test A postemergence; assay type: in vivo; conditions: Alopecurus myosuroides, post-emergence, 240 h, 125 g ai/ha, postemergence, visual injury vs untreated controls after approx. 10 d; 0 = no effect, 100 = complete control; read-out: Blackgrass plant response rating (0 to 100 scale)
measurement label: pest or weed control at 125 g/ha (%)
# value in %; strip the unit string

compound: O=C1NC[C@H](c2ccc(C(F)(F)F)cc2)C1C(=O)Nc1ccccc1CO (some centres unmarked)
pest or weed control at 125 g/ha / %: 0

Case CSc1ccccc1NC(=O)[C@H]1C(=O)N(C)C[C@@H]1c1cccc(C)c1 , blackgrass (Alopecurus myosuroides), pest or weed control at 125 g/ha recorded as 0

Case CN1C[C@H](c2ccc(F)c(C#N)c2)[C@@H](C(=O)Nc2ccccc2F)C1=O , blackgrass (Alopecurus myosuroides), pest or weed control at 125 g/ha recorded as 0

Case CN1C[C@H](c2ccc(Cl)c(F)c2)[C@@H](C(=O)Nc2cccc(F)c2F)C1=O , blackgrass (Alopecurus myosuroides), pest or weed control at 125 g/ha recorded as 50

Case Cc1c(F)cccc1NC(=O)[C@H]1C(=O)N(C)C[C@@H]1c1ccc(F)c(Br)c1 , blackgrass (Alopecurus myosuroides), pest or weed control at 125 g/ha recorded as 30

====

test system: giant foxtail (Setaria faberii); test: Test A postemergence; format: in vivo; conditions: Setaria faberi, post-emergence, 240 h, 125 g ai/ha, Postemergence, visual rating about 10 d after treatment; read-out: Foxtail, Giant plant response rating (0 to 100 scale)
measurement label: pest or weed control at 125 g/ha (%)
# value in %; strip the unit string

Consider the following illustrative entries.
compound: CN1C[C@H](c2ccccc2)[C@](C)(C(=O)Nc2ccccc2F)C1=O (racemic)
tested on: giant foxtail (Setaria faberii)
unit info: %
pest or weed control at 125 g/ha: 0

compound: CN1C[C@H](c2csc3c2CCOC3)[C@@H](C(=O)Nc2ccccc2F)C1=O
tested on: giant foxtail (Setaria faberii)
unit info: %
pest or weed control at 125 g/ha: 90

compound: CN1C[C@H](c2cccc(C(F)(F)F)c2)[C@@H](C(=O)Nc2ccc(F)nc2F)C1=O
tested on: giant foxtail (Setaria faberii)
unit info: %
pest or weed control at 125 g/ha: 90

compound: O=C1NCC(c2c(Cl)cccc2Cl)C1C(=O)Nc1ccccc1F (stereo not shown)
tested on: giant foxtail (Setaria faberii)
unit info: %
pest or weed control at 125 g/ha: 0

compound: COc1cc([C@H]2CN(C)C(=O)[C@@H]2C(=O)Nc2ccccc2SC)ccc1F
tested on: giant foxtail (Setaria faberii)
unit info: %
pest or weed control at 125 g/ha: 20

compound: CC(C)Oc1ccc([C@H]2CN(C)C(=O)[C@@H]2C(=O)Nc2ccccc2F)cc1F
tested on: giant foxtail (Setaria faberii)
unit info: %
pest or weed control at 125 g/ha: 60

Item: CN1C[C@H](c2ccc3c(c2)C(F)(F)C(F)(F)O3)[C@@H](C(=O)Nc2cccc(F)c2F)C1=O | pest or weed control at 125 g/ha: 80

Item: CN1C[C@H](c2ccc3c(c2)OC(F)(F)O3)[C@@H](C(=O)Nc2cnccc2C(F)(F)F)C1=O | pest or weed control at 125 g/ha: 60

Item: O=C1NC[C@H](c2cc(Cl)cc(Cl)c2)[C@H]1C(=O)Nc1cccc(F)c1F | pest or weed control at 125 g/ha: 80

Item: Cc1ccc([C@H]2CN(C)C(=O)[C@@H]2C(=O)Nc2c(F)c(F)c(F)c(F)c2F)cc1 | pest or weed control at 125 g/ha: 0
